Value source: ChEMBL document CHEMBL1131106

# ASSAY_TARGET: Retinoic acid receptor beta (Homo sapiens, UniProt P10826)
# Sequence (P10826 whole entry): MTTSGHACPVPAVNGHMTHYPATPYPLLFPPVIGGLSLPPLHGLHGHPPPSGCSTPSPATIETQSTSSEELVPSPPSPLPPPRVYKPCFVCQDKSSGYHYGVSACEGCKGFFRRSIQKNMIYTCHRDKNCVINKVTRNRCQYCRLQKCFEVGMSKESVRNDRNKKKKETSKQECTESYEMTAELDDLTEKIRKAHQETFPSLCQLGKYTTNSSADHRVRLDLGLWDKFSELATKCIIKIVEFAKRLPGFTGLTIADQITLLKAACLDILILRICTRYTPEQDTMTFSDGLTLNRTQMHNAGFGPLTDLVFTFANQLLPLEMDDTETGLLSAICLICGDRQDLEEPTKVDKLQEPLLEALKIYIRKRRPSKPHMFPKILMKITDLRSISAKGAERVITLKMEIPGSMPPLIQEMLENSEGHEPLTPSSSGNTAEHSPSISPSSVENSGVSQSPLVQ
# TEST_PROTOCOL: Transcriptional activation in CV-1 cells expressing RAR-beta receptor
Reported EC50 values for a set of molecules
MEASURED_METRIC: EC50 (nM)

# SMILES_STRING, ASSAY_TARGET, MEASURED_METRIC, UNIT_SPEC, MEASUREMENT
measured = [
    ("COC(=O)c1ccc(/C=C(\\C)c2ccc3c(c2)C(C)(C)CCS3)cc1", "Retinoic acid receptor beta (Homo sapiens, UniProt P10826)", "EC50", "nM", 110),
    ("CC(/C=C/C=C(\\C)c1ccc2c(c1)C(C)(C)CCO2)=C\\C(=O)O", "Retinoic acid receptor beta (Homo sapiens, UniProt P10826)", "EC50", "nM", 72),
    ("COC(=O)c1ccc(/C=C(\\C)c2ccc3c(c2)C(C)(C)CCO3)cc1", "Retinoic acid receptor beta (Homo sapiens, UniProt P10826)", "EC50", "nM", 140),
]
